The reported numbers originate from ChEMBL document CHEMBL2311262.

assay: Cmax in monkey at 10 mg/kg, po; assay type: ADME, organism-based, Macaca mulatta; parameters: dose 10 mg/kg, route oral; conditions: rhesus monkey, in vivo
MEASURED_QUANTITY: Cmax (nM)
Dear colleague, please return just the value in nM, with no unit written.

Prompt line: Tell me the measured Cmax of `CS(=O)(=O)CC[C@@H]1OCC[C@@]2(S(=O)(=O)c3ccc(C(F)(F)F)cc3)c3c(F)ccc(F)c3OC[C@@H]12` , please.
Response line: 810

###

molecular target: Gamma-secretase; assay: Inhibition of gamma secretase-mediated amyloid beta40 production in HEK293 cells transfected with human APPSOW and APPLON after 5 hrs by sandwich immunoassay; assay type: cell-based
Examples of molecules with documented IC50 follow.
Dear colleague, please return just the value in nM, with no unit written.

Prompt line: Tell me the measured IC50 of `CCCS(=O)(=O)CC[C@@H]1OCC[C@@]2(S(=O)(=O)c3ccc(Cl)cc3)c3c(F)ccc(F)c3OC[C@@H]12` , please.
Response line: 11

Prompt line: Tell me the measured IC50 of `CS(=O)(=O)CC[C@@H]1OCC[C@@]2(S(=O)(=O)c3ccc(Cl)cc3)c3c(F)ccc(F)c3OC[C@@H]12` , please.
Response line: 4

Prompt line: Tell me the measured IC50 of `O=S(=O)(CCO)CC[C@@H]1OCC[C@@]2(S(=O)(=O)c3ccc(Cl)cc3)c3c(F)ccc(F)c3OC[C@@H]12` , please.
Response line: 1.2

Prompt line: Tell me the measured IC50 of `O=S(=O)(CC[C@@H]1OCC[C@@]2(S(=O)(=O)c3ccc(Cl)cc3)c3c(F)ccc(F)c3OC[C@@H]12)c1cnn[nH]1` , please.
Response line: 13

Prompt line: Tell me the measured IC50 of `CS(=O)(=O)CC[C@@H]1OCC[C@@]2(S(=O)(=O)c3ccc(C#N)c(C#N)c3)c3c(F)ccc(F)c3OC[C@@H]12` , please.
Response line: 400

Prompt line: Tell me the measured IC50 of `CS(=O)(=O)CC[C@@H]1OCC[C@@]2(S(=O)(=O)c3ccc(F)c(F)c3)c3c(F)ccc(F)c3OC[C@@H]12` , please.
Response line: 14

Prompt line: Tell me the measured IC50 of `CS(=O)(=O)CC[C@@H]1OCC[C@@]2(S(=O)(=O)c3ccc(Br)cc3)c3c(F)ccc(F)c3OC[C@@H]12` , please.
Response line: 2.5

###

assay: Tmax in rat at 10 mg/kg, po; type: ADME, organism-based; set-up: dose 10 mg/kg, route oral; details: in vivo
MEASURED_QUANTITY: Tmax (h)
Dear colleague, please return just the value in h, with no unit written.

Prompt line: Tell me the measured Tmax of `CS(=O)(=O)CC[C@@H]1OCC[C@@]2(S(=O)(=O)c3ccc(C(F)(F)F)cc3)c3c(F)ccc(F)c3OC[C@@H]12` , please.
Response line: 2

###

assay: Tmax in monkey at 10 mg/kg, po; type: ADME, organism-based, Macaca mulatta; set-up: dose 10 mg/kg, route oral; settings: rhesus monkey, in vivo
MEASURED_QUANTITY: Tmax (h)
Dear colleague, please return just the value in h, with no unit written.

Prompt line: Tell me the measured Tmax of `CS(=O)(=O)CC[C@@H]1OCC[C@@]2(S(=O)(=O)c3ccc(C(F)(F)F)cc3)c3c(F)ccc(F)c3OC[C@@H]12` , please.
Response line: 5.3
